Study Target: Cbl-b (Homo sapiens (Human))
Sequence (Q13191 40-426): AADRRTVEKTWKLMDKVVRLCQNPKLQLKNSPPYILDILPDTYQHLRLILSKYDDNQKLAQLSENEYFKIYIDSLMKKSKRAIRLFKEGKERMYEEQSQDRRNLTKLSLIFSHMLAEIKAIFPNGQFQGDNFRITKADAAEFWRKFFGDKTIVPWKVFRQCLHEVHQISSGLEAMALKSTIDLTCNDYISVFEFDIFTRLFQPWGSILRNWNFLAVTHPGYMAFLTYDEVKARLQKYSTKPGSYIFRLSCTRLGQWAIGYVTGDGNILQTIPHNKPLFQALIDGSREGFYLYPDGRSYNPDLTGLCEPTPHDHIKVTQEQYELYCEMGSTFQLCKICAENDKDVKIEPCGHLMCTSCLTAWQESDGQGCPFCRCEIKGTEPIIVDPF
Assay Comment: Cbl-b LCK Ub TR-FRET assay (Cbl-b Lck HTRF)
Format: biochemical
Details: Cbl-b LCK Ub TR-FRET
Observation Type: IC50 (nM)

Solved entries (count: 4):
[
  {
    "Compound": "CC(=O)[C@H]1C[C@](c2cccc(N3Cc4c(cc(CNC5(C)CCC5)cc4C(F)(F)F)C3=O)c2)(c2nncn2C)C1",
    "IC50, nM": 10
  },
  {
    "Compound": "Cn1cnnc1[C@@H](c1cccc(N2Cc3c(cc(CNC4(C)CCC4)cc3C(F)(F)F)C2=O)c1)C1COC1 (single isomer, unassigned)",
    "IC50, nM": 8.9
  },
  {
    "Compound": "Cn1cnnc1[C@H](c1cccc(N2Cc3c(cc(CNC4(C)CCC4)cc3C(F)(F)F)C2=O)c1)C1CC(OC(F)F)C1 (single isomer, unassigned) [Compound 390]",
    "IC50, nM": 5.5
  },
  {
    "Compound": "Cn1cnnc1[C@]1(c2cccc(N3Cc4c(cc(CNC5(C)CCC5)cc4C(F)(F)F)C3=O)c2)C[C@@H](CF)C1",
    "IC50, nM": 9.1
  }
]

a = CO[C@]1(C)C[C@](c2cccc(N3Cc4c(cc(CNC5(C)CCC5)cc4C(F)(F)F)C3=O)c2)(c2nncn2C)C1
b = Cn1cnnc1C1(c2cc(C3CC3)nc(N3Cc4c(cc(CNC5(C)CCC5)cc4C(F)(F)F)C3=O)c2)CC(F)(F)C1
c = CC[C@](F)(c1cccc(N2Cc3c(cc(CNC4(C)CCC4)cc3C(F)(F)F)C2=O)c1)c1nncn1C (single isomer, unassigned)
d = CCOc1cc(C2(c3nncn3C)CC(F)(F)C2)cc(N2Cc3c(cc(CNC4(C)CCC4)cc3C(F)(F)F)C2=O)n1
Req: Sort these compounds on IC50 so the largest reading comes first. Answer format: the labels, ordered as requested.
Resp: c, a, d, b
